Test system: B16 melanocytes
EXPERIMENT_DESCRIPTION: Cell numbers by sulforhodamine B method, Study I
Type: cell-based
MEASUREMENT_CONDITIONS: 20X dilution of stock solutions; 48 hours incubation
PROPERTY_NAME: effect on cell numbers / cytotoxicity

In [3]: df
Out[3]:
                                   compound  recorded_result
0              NC(=O)c1cccnc1 [niacinamide]        no effect
1  CC(N)[PH](=O)O (stereo not shown) [1-amino-ethylphosphinic acid]        no effect

---

Tested on: B16 melanocytes
EXPERIMENT_DESCRIPTION: Cell numbers by sulforhodamine B method, Study II
Type: cell-based
MEASUREMENT_CONDITIONS: 20X dilution of dilute stock solutions; 72 hours
PROPERTY_NAME: effect on cell numbers / cytotoxicity

>>> df
                                   compound    tested_target       recorded_result
0              NC(=O)c1cccnc1 [niacinamide]  B16 melanocytes  no inhibitory effect
1  CC(N)[PH](=O)O (stereo not shown) [1-amino-ethylphosphinic acid]  B16 melanocytes  no inhibitory effect

Reference source for all entries: patent US20150125406A1
